Target: Peroxisome proliferator-activated receptor alpha (Homo sapiens)
Sequence (whole entry): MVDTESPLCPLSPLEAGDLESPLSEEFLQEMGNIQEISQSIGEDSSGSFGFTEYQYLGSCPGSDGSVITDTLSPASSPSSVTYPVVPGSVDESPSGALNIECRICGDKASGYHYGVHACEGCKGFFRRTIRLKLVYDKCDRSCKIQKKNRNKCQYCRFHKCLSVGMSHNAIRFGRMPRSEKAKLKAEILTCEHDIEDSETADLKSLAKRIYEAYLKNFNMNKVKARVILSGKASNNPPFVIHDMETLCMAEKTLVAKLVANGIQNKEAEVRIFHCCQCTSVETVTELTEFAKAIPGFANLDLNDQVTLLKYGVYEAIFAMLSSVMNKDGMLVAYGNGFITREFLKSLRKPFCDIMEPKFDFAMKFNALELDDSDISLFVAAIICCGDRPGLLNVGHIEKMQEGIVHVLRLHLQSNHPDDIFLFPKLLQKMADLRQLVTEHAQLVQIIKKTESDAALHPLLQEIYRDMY
Assay: Agonist activity at GAL4-fused human PPARalpha expressed in COS7 cells incubated for 24 hrs by luciferase reporter gene assay
Format: cell-based
Active and inactive are the calls of the source. No cut-off for these calls is given here.
Respond with a class label; see yes for active, no for inactive

                                   compound  classification
0  CCOC(=O)CCC1(C)CC(=O)c2cc(O)ccc2O1 (centres undefined)             yes

Req: For CC(C)=CCCC1(C)CC(O)c2cc(O)ccc2O1 (centres undefined) , what call appears in the results of this test?
Resp: no

Req: For CC(C)(O)CCC1(C)CC(=O)c2cc(O)ccc2O1 (centres undefined) , what call appears in the results of this test?
Resp: yes

Req: For CCCCCC1(C)CC(O)c2cc(O)ccc2O1 (centres undefined) , what call appears in the results of this test?
Resp: no

Req: For CC1(CCC(=O)O)CCc2cc(O)ccc2O1 (centres undefined) , what call appears in the results of this test?
Resp: yes

Req: For CC(O)CCC1(C)CC(=O)c2cc(O)ccc2O1 (centres undefined) , what call appears in the results of this test?
Resp: yes

Req: For C=C(C)CCC1(C)CCc2cc(O)ccc2O1 (centres undefined) , what call appears in the results of this test?
Resp: yes

Req: For CC(=O)Oc1ccc2c(c1)C(=O)CC(C)(CCC(C)OC(C)=O)O2 (centres undefined) , what call appears in the results of this test?
Resp: yes

Req: For COC(=O)CCC1(C)CCc2cc(O)ccc2O1 (centres undefined) , what call appears in the results of this test?
Resp: yes

* * *

target: Peroxisome proliferator-activated receptor alpha (Homo sapiens) (UniProt Q07869); test: Transactivation of GAL4-fused human PPARalpha expressed in COS7 cells assessed as efficacy at 10 uM incubated for 24 hrs by luciferase reporter gene assay relative to WY-14643; assay type: cell-based
assay_metric: Efficacy

In [3]: df
Out[3]:
                                   molecule                              study_target  result
0  COC(=O)CCC1(C)CCc2cc(O)ccc2O1 (stereo not drawn)  Peroxisome proliferator-activated receptor alpha (Homo sapiens) (UniProt Q07869)     33%
1  CCOC(=O)CCC1(C)CC(=O)c2cc(O)ccc2O1 (stereo not drawn)  Peroxisome proliferator-activated receptor alpha (Homo sapiens) (UniProt Q07869)     16%
2  C=C(C)CCC1(C)CCc2cc(O)ccc2O1 (stereo not drawn)  Peroxisome proliferator-activated receptor alpha (Homo sapiens) (UniProt Q07869)     35%

Req: Dear colleague, I am looking for the recorded Efficacy of the following molecule: CC(=O)Oc1ccc2c(c1)C(=O)CC(C)(CCC(C)OC(C)=O)O2 (stereo not drawn)
Resp: 40%

Req: Dear colleague, I am looking for the recorded Efficacy of the following molecule: CC(O)CCC1(C)CC(=O)c2cc(O)ccc2O1 (stereo not drawn)
Resp: 23%

Req: Dear colleague, I am looking for the recorded Efficacy of the following molecule: CC(C)(O)CCC1(C)CC(=O)c2cc(O)ccc2O1 (stereo not drawn)
Resp: 23%

Req: Dear colleague, I am looking for the recorded Efficacy of the following molecule: CC1(CCC(=O)O)CCc2cc(O)ccc2O1 (stereo not drawn)
Resp: 21%

The reported measurements were obtained from ChEMBL document CHEMBL4406903.
